assay: Cytotoxicity against African green monkey Vero cells after 72 hrs by MTT assay; type: cell-based; conditions: chlorocebus sabaeus
property: CC50 at 72 h (µM)
Numeric only. Scale: µM

Recorded CC50 at 72 h, per entry:
INSERT INTO assay_data (compound, recordedresult) VALUES
  ('N/C(=N/NC(CC(=O)c1ccc(-n2ccnc2)cc1)c1cccc(Br)c1)c1ccccn1 (centres undefined)', 51.3),
  ('N/C(=N/NC(CC(=O)c1ccc(-n2ccnc2)cc1)c1ccc(F)cc1)c1ccccn1 (centres undefined)', 78.8),
  ('N/C(=N/NC(CC(=O)c1ccc(-n2ccnc2)cc1)c1cccc(F)c1)c1ccccn1 (centres undefined)', 26.5),
  ('N/C(=N/NC(CC(=O)c1ccc(-n2ccnc2)cc1)c1ccc(Cl)cc1)c1ccccn1 (centres undefined)', 78.8),
  ('N/C(=N/NC(CC(=O)c1ccc(-n2ccnc2)cc1)c1ccccc1Br)c1ccccn1 (centres undefined)', 29);

Request: Query: CC50 at 72 h; subject: N/C(=N/NC(CC(=O)c1ccc(-n2ccnc2)cc1)c1ccccc1[N+](=O)[O-])c1ccccn1 (centres undefined)
Result: 48

Request: Query: CC50 at 72 h; subject: N/C(=N/NC(CC(=O)c1ccc(-n2ccnc2)cc1)c1ccc(Cl)cc1Cl)c1ccccn1 (centres undefined)
Result: 27.8

Request: Query: CC50 at 72 h; subject: N/C(=N/NC(CC(=O)c1ccc(-n2ccnc2)cc1)c1ccc([N+](=O)[O-])cc1)c1ccccn1 (centres undefined)
Result: 23.1

###

test system: Mycobacterium tuberculosis; assay: Antimycobacterial activity against Mycobacterium tuberculosis H37Ra […] after 7 days by resazurin microtiter assay; format: functional; conditions: 168 h
Lab note: cut-off is 9 µM. Strictly less in MIC is T. Exactly 9 µM or more is F.

INSERT INTO measurements (molecule, classification) VALUES
  ('N/C(=N/NC(CC(=O)c1ccc(-n2ccnc2)cc1)c1ccc(Br)cc1)c1ccccn1 (stereo unspecified)', 'F');

Request: Record N/C(=N/NC(CC(=O)c1ccc(-n2ccnc2)cc1)c1cccc(F)c1)c1ccccn1 (stereo unspecified) : is its MIC strictly below 9 µM?
Result: T

Request: Record N/C(=N/NC(CC(=O)c1ccc(-n2ccnc2)cc1)c1ccccc1)c1ccccn1 (stereo unspecified) : is its MIC strictly below 9 µM?
Result: F

Request: Record N/C(=N/NC(CC(=O)c1ccc(-n2ccnc2)cc1)c1ccccc1Cl)c1ccccn1 (stereo unspecified) : is its MIC strictly below 9 µM?
Result: F

Request: Record N/C(=N/NC(CC(=O)c1ccc(-n2ccnc2)cc1)c1ccccc1F)c1ccccn1 (stereo unspecified) : is its MIC strictly below 9 µM?
Result: F

###

tested on: Mycobacterium tuberculosis; experiment: Antimycobacterial activity against Mycobacterium tuberculosis H37Ra […] after 7 days by resazurin microtiter assay; type: functional; settings: 168 h
Catalogue of log10(MIC) readings, one per entry.
Could you please treat all values as log10 of MIC in µM?

Request: For the record `NNC(=O)c1ccncc1` , what value of log10(MIC) is listed for Mycobacterium tuberculosis?
Result: -0.05

Request: For the record N/C(=N/NC(CC(=O)c1ccc(-n2ccnc2)cc1)c1cccc(Br)c1)c1ccccn1 (centres undefined) , what value of log10(MIC) is listed for Mycobacterium tuberculosis?
Result: 1.21

###

system: Mycobacterium marinum; test: Antimycobacterial activity against Mycobacterium marinum CIP 6423 after 7 days by resazurin microtiter assay; type: functional; conditions: CIP 6423, 168 h
property: MIC (µM)
Numeric only. Scale: µM

INSERT INTO measurements (compound, recordedresult) VALUES
  ('N/C(=N/NC(CC(=O)c1ccc(-n2ccnc2)cc1)c1cccc(Br)c1)c1ccccn1 (stereo not given)', 16.3),
  ('N/C(=N/NC(CC(=O)c1ccc(-n2ccnc2)cc1)c1ccc(Br)cc1)c1ccccn1 (stereo not given)', 8.2),
  ('N/C(=N/NC(CC(=O)c1ccc(-n2ccnc2)cc1)c1cccc(F)c1)c1ccccn1 (stereo not given)', 18.7),
  ('N/C(=N/NC(CC(=O)c1ccc(-n2ccnc2)cc1)c1cccc([N+](=O)[O-])c1)c1ccccn1 (stereo not given)', 35.1);

Let's switch to this compound now.
Request: Query: MIC; subject: N/C(=N/NC(CC(=O)c1ccc(-n2ccnc2)cc1)c1ccc([N+](=O)[O-])cc1)c1ccccn1 (stereo not given)
Result: 35.1

###

test system: Candida albicans; assay: Antimicrobial activity against Candida albicans 685 clinical isolate at 20 ug per disk after 18 to 24 hrs by agar diffusion assay; assay type: functional; details: read-out: DIZ
property: zone of inhibition at 20 µg/disc
Give your result as the value with the unit written after it.

Recorded zone of inhibition at 20 µg/disc, per entry:
INSERT INTO assay_data (compound, assayedsystem, property, recordedresult) VALUES
  ('N/C(=N/NC(CC(=O)c1ccc(-n2ccnc2)cc1)c1ccc(F)cc1)c1ccccn1 (centres undefined)', 'Candida albicans', 'zone of inhibition at 20 µg/disc', '6 mm'),
  ('N/C(=N/NC(CC(=O)c1ccc(-n2ccnc2)cc1)c1ccccc1)c1ccccn1 (centres undefined)', 'Candida albicans', 'zone of inhibition at 20 µg/disc', '5 mm'),
  ('N/C(=N/NC(CC(=O)c1ccc(-n2ccnc2)cc1)c1ccc(Cl)cc1Cl)c1ccccn1 (centres undefined)', 'Candida albicans', 'zone of inhibition at 20 µg/disc', '8 mm'),
  ('N/C(=N/NC(CC(=O)c1ccc(-n2ccnc2)cc1)c1ccc(Cl)cc1)c1ccccn1 (centres undefined)', 'Candida albicans', 'zone of inhibition at 20 µg/disc', '9 mm'),
  ('N/C(=N/NC(CC(=O)c1ccc(-n2ccnc2)cc1)c1ccccc1Br)c1ccccn1 (centres undefined)', 'Candida albicans', 'zone of inhibition at 20 µg/disc', '8 mm'),
  ('N/C(=N/NC(CC(=O)c1ccc(-n2ccnc2)cc1)c1cccc(Br)c1)c1ccccn1 (centres undefined)', 'Candida albicans', 'zone of inhibition at 20 µg/disc', '13 mm'),
  ('N/C(=N/NC(CC(=O)c1ccc(-n2ccnc2)cc1)c1ccccc1Cl)c1ccccn1 (centres undefined)', 'Candida albicans', 'zone of inhibition at 20 µg/disc', '7 mm'),
  ('N/C(=N/NC(CC(=O)c1ccc(-n2ccnc2)cc1)c1ccc([N+](=O)[O-])cc1)c1ccccn1 (centres undefined)', 'Candida albicans', 'zone of inhibition at 20 µg/disc', '5 mm');

Request: Query: zone of inhibition at 20 µg/disc; subject: N/C(=N/NC(CC(=O)c1ccc(-n2ccnc2)cc1)c1cccc(Cl)c1)c1ccccn1 (centres undefined)
Result: 11 mm

###

Catalogue of zone of inhibition at 20 µg/disc readings, one per entry.
system: Staphylococcus aureus; assay: Antimicrobial activity against Staphylococcus aureus ATCC 25923 at 20 ug per disk after 18 to 24 hrs by agar diffusion assay; format: functional; conditions: read-out: DIZ
Numeric only. Scale: mm

Recorded zone of inhibition at 20 µg/disc, per entry:
INSERT INTO results (compound, recordedresult) VALUES
  ('N/C(=N/NC(CC(=O)c1ccc(-n2ccnc2)cc1)c1ccc(Br)cc1)c1ccccn1 (centres undefined)', 20),
  ('N/C(=N/NC(CC(=O)c1ccc(-n2ccnc2)cc1)c1cccc([N+](=O)[O-])c1)c1ccccn1 (centres undefined)', 13),
  ('N/C(=N/NC(CC(=O)c1ccc(-n2ccnc2)cc1)c1cccc(Br)c1)c1ccccn1 (centres undefined)', 19),
  ('N/C(=N/NC(CC(=O)c1ccc(-n2ccnc2)cc1)c1ccccc1Br)c1ccccn1 (centres undefined)', 19),
  ('N/C(=N/NC(CC(=O)c1ccc(-n2ccnc2)cc1)c1ccc([N+](=O)[O-])cc1)c1ccccn1 (centres undefined)', 13);

Request: Query: zone of inhibition at 20 µg/disc; subject: N/C(=N/NC(CC(=O)c1ccc(-n2ccnc2)cc1)c1ccccc1Cl)c1ccccn1 (centres undefined)
Result: 20

Request: Query: zone of inhibition at 20 µg/disc; subject: N/C(=N/NC(CC(=O)c1ccc(-n2ccnc2)cc1)c1ccc(F)cc1)c1ccccn1 (centres undefined)
Result: 20

###

test: Cytotoxicity against African green monkey Vero cells after 72 hrs by MTT assay; type: cell-based; settings: chlorocebus sabaeus
property: log10 of CC50 at 72 h (log10 of the value in µM)
Could you please treat all values as log10 of CC50 at 72 h in µM?

INSERT INTO assay_data (molecule, recordedresult) VALUES
  ('N/C(=N/NC(CC(=O)c1ccc(-n2ccnc2)cc1)c1ccc(Br)cc1)c1ccccn1 (stereo unspecified)', 2.47),
  ('N/C(=N/NC(CC(=O)c1ccc(-n2ccnc2)cc1)c1ccccc1)c1ccccn1 (stereo unspecified)', 1.80),
  ('N/C(=N/NC(CC(=O)c1ccc(-n2ccnc2)cc1)c1ccccc1F)c1ccccn1 (stereo unspecified)', 1.79),
  ('N/C(=N/NC(CC(=O)c1ccc(-n2ccnc2)cc1)c1cccc(Cl)c1)c1ccccn1 (stereo unspecified)', 1.84),
  ('N/C(=N/NC(CC(=O)c1ccc(-n2ccnc2)cc1)c1cccc([N+](=O)[O-])c1)c1ccccn1 (stereo unspecified)', 1.46);

Let's switch to this molecule now.
Request: Query: log10 of CC50 at 72 h; subject: N/C(=N/NC(CC(=O)c1ccc(-n2ccnc2)cc1)c1ccccc1Cl)c1ccccn1 (stereo unspecified)
Result: 1.73
